molecular target: BDNF/NT-3 growth factors receptor (Homo sapiens, UniProt Q16620)
Sequence (Q16620 32-822 limits assumed): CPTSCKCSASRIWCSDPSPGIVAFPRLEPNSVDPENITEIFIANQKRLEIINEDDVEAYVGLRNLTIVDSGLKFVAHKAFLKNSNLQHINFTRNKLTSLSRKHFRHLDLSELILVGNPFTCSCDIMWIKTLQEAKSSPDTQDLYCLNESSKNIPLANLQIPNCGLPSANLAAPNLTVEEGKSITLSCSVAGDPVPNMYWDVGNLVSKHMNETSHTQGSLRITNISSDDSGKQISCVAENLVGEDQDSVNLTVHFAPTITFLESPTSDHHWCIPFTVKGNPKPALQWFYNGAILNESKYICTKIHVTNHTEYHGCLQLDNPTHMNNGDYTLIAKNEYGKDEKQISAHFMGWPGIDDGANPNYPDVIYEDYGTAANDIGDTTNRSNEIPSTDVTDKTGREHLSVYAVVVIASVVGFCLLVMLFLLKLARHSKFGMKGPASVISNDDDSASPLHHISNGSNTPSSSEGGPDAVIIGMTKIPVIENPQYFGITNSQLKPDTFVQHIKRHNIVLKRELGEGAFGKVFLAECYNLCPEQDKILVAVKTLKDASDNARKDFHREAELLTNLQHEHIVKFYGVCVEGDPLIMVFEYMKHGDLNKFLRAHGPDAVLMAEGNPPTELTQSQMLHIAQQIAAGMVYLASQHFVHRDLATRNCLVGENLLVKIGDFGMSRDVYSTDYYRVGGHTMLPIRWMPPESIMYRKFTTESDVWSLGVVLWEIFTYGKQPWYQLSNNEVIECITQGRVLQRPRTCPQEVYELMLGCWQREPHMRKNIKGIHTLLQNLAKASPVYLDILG
MEASURED_METRIC: IC50 (nM)
Numbers only, in nM.

[Q] Give reported IC50 value for Cc1cc(Nc2ncc(Cl)c(Nc3ccccc3S(=O)(=O)C(C)C)n2)c(OC(C)C)cc1C1CCNCC1
[A] 1830

---

Provide the reported IC50 of each item.
biological target: Voltage-gated inwardly rectifying potassium channel KCNH2 (Homo sapiens)
Sequence (Q12809 whole entry): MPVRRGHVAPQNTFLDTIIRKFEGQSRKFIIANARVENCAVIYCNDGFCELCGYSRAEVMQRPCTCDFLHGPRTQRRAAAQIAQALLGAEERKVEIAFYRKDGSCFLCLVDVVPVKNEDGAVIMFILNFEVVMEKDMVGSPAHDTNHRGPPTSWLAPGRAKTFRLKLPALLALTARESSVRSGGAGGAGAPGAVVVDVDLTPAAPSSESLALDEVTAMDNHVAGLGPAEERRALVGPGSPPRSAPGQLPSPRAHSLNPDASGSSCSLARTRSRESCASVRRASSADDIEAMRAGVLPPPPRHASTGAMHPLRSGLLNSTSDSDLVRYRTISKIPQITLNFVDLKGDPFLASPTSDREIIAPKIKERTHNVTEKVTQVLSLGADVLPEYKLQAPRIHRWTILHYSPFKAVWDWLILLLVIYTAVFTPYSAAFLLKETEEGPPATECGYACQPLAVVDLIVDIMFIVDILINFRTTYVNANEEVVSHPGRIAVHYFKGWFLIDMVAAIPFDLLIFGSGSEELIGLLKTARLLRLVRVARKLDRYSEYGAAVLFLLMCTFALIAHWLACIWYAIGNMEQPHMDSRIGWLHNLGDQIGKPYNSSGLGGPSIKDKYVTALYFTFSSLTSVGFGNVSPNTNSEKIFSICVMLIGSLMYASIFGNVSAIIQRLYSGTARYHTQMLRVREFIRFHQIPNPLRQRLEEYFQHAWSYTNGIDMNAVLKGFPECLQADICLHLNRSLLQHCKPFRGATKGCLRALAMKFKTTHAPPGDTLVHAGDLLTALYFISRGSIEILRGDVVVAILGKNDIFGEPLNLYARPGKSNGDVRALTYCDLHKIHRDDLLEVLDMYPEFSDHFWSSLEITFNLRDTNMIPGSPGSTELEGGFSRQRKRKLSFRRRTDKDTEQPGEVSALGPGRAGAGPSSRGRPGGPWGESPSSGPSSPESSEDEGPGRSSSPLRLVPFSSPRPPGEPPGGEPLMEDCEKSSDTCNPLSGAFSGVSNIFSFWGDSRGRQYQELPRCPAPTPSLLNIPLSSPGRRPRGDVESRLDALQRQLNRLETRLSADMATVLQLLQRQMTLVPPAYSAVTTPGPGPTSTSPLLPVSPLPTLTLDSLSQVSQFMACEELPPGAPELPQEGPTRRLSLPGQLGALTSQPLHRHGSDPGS
Answers are plain numbers, in nM.

smiles_string=Cc1cc(Nc2ncc(C)c(Nc3ccccc3S(=O)(=O)C(C)C)n2)c(OC(C)C)cc1C1CCN(C)CC1 units=nM value_measured=1100

Next compound, IC50 to be filled in.
[Q] Give IC50 for CC(C)Oc1nc(C2CCNCC2)ncc1Nc1ncc(Cl)c(Nc2ccccc2S(=O)(=O)C(C)C)n1
[A] 400
